target: PI3K delta (Homo sapiens (Human)); test: Enzymatic PI3K delta isoform inhibition (lipid kinase activity, Kinase-Glo luminescence); settings: Enzymatic assay
Sequence (O00329 other isoform, or with tags, fused parts or gaps linker GGGGGG): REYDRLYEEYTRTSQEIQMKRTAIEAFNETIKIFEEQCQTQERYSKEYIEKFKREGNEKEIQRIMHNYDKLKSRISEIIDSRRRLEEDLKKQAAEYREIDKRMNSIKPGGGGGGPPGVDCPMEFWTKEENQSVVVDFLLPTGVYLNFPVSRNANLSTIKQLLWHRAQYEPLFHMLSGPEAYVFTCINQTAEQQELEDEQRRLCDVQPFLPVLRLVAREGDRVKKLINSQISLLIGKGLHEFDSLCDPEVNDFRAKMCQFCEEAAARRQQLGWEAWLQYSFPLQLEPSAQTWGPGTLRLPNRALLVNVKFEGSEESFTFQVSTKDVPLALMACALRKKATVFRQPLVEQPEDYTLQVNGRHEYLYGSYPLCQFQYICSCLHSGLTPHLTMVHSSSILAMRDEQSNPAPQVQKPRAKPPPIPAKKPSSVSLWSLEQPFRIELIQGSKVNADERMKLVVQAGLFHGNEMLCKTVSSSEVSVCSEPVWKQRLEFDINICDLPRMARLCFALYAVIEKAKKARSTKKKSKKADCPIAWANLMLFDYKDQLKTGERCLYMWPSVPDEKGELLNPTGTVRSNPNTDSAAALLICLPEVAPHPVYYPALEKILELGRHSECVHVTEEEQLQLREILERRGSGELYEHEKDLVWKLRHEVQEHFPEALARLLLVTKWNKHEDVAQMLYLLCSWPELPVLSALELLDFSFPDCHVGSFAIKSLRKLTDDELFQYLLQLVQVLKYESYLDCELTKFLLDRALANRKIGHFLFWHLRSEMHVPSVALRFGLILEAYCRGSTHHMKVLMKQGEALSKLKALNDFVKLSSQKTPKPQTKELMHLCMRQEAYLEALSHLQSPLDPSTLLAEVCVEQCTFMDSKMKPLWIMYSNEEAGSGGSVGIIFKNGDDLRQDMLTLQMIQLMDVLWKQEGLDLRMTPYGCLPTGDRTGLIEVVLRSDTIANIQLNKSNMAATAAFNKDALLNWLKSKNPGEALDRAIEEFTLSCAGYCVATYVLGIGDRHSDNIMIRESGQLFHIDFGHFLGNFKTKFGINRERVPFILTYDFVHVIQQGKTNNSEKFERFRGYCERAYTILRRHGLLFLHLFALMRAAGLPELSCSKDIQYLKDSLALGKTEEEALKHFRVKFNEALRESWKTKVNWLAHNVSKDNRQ
The class of a record is decided solely by its measured IC50; consult low: < 0.01 µM; middle: ≥ 0.01 µM and < 0.05 µM; high: ≥ 0.05 µM

Some solved entries appear below for comparison.
>>> discrete_label("COc1ncc(N2CCOc3ccc(O[C@H]4CCN(C(=O)c5cnn(C)c5)C4)cc32)cc1C")
"middle"
>>> discrete_label("Cn1cnc(C(=O)N2CC[C@H](Oc3ccc4c(c3)N(c3cnc(S(C)(=O)=O)c(C(F)F)c3)CCO4)C2)c1")
"low"
>>> discrete_label("Cc1cc(N2CCOc3ccc(O[C@H]4CCN(C(=O)c5cnco5)C4)cc32)cnc1S(C)(=O)=O")
"middle"
>>> discrete_label("COc1ncc(N2CC(C)Oc3ccc(O[C@H]4CCN(C(=O)C5CCOCC5)C4)cc32)cc1C#N (stereo partly drawn)")
"high"
>>> discrete_label("COc1ncc(N2CCOc3ccc(O[C@H]4CCN(C(=O)c5ccc(=O)n(C)c5)C4)cc32)cc1C")
"low"

Assign a category based on measured IC50 for "COc1ncc(N2CCOc3ccc(O[C@H]4CCN(C(=O)C5CCS(=O)(=O)CC5)C4)c(F)c32)cc1C" and give only the class name.
middle

Next compound: COc1ncc(N2CCOc3ccc(O[C@H]4CCN(C(=O)C5CCS(=O)(=O)C5)C4)cc32)cc1F (stereo partly drawn) [Example B101]
middle

Next compound: "CCC(=O)N1CC[C@H](Oc2ccc3c(c2)N(c2ccc(OC)c(S(=O)(=O)NOC)c2)CCO3)C1"
high

Next compound: "CCS(=O)(=O)N1CC[C@H](Oc2ccc3c(c2)N(c2cnc(S(C)(=O)=O)c(C)c2)CCO3)C1"
high

Next compound: "CCC(=O)N1CC[C@H](Oc2ccc3c(c2)N(c2cnc(Cl)c(C)c2)CCO3)C1"
middle

Next compound: "Cc1cc(N2CCOc3ccc(O[C@H]4CCN(C(=O)CCO)C4)cc32)cnc1Cl"
middle

Next compound: "CN(C)S(=O)(=O)c1cncc(N2CCOc3ccc(O[C@H]4CCN(C(=O)C5CCOCC5)C4)cc32)c1"
low

Next compound: COc1ncc(N2CCOc3ccc(O[C@H]4CCN(C(=O)C5CCOC5)C4)cc32)cc1C (stereo partly drawn) [Example B15]
middle

Next compound: COc1cc(N2CCOc3ccc(O[C@H]4CCN(C(=O)C5COCCO5)C4)cc32)cnc1OC (stereo partly drawn)
middle

====

target: PI3K delta (Homo sapiens (Human)); test: Enzymatic PI3K delta isoform inhibition (lipid kinase activity, Kinase-Glo luminescence); conditions: Enzymatic assay
pIC50: −log10 of the molar value.
We use 8 as the dividing line for pIC50: on or above the line is fulfilled, below is not fulfilled.

Some solved entries appear below for comparison.
>>> discrete_label("COc1ncc(N2CCOc3ccc(O[C@H]4CCN(C(=O)Cc5ccncc5)C4)cc32)cc1C#N [S]")
"not fulfilled"
>>> discrete_label("COc1ncc(N2CCOc3cnc(O[C@H]4CCN(C(=O)C5CCOCC5)C4)cc32)cc1C [Example E3]")
"fulfilled"
>>> discrete_label("CCC(=O)N1CC[C@H](Oc2ccc3c(c2)N(c2ccc(S(C)(=O)=O)nc2)CCO3)C1 [Example A8]")
"not fulfilled"
>>> discrete_label("Cc1cnccc1C(=O)N1CC[C@H](Oc2ccc3c(c2)N(c2cnc(S(C)(=O)=O)c(C)c2)CCO3)C1 [Example B67]")
"not fulfilled"
>>> discrete_label("COc1ncc(N2CCOc3ccc(O[C@H]4CCN(CC5CCN(C)CC5)C4)cc32)cc1C#N [P]")
"not fulfilled"
>>> discrete_label("COc1ncc(N2CCOc3cnc(O[C@H]4CCN(C(=O)C5CCOCC5)C4)cc32)cc1C#N [Example F4]")
"fulfilled"

# bool: pIC50 of COc1cc(N2CCOc3ccc(O[C@H]4CCN(C(=O)C5CCS(=O)(=O)C5)C4)cc32)cnc1OC (single isomer, unassigned) [Example H10] >= 8
not fulfilled

Next compound: COc1ncc(N2CCOc3ccc(O[C@H]4CCN(C(=O)C5CCCCC5)C4)cc32)cc1C#N [Example D13]
fulfilled
